Reported values: ΔTm for Tyrosine-protein kinase JAK1 (Homo sapiens), one per item.
Quick note: give the figure in °C, leave out the unit.

Here are 4 compounds together with their reported answers.
compound | test_system | assay_endpoint | meas_value
CN(C)CCCn1cc(C2=C(c3c[nH]c4ccccc34)C(=O)NC2=O)c2ccccc21 | Tyrosine-protein kinase JAK1 (Homo sapiens) | ΔTm | 1.5
Nc1ncnc2c1c(I)cn2[C@@H]1O[C@H](CO)[C@@H](O)[C@H]1O | Tyrosine-protein kinase JAK1 (Homo sapiens) | ΔTm | 0.2
COC(=O)[C@]1(O)C[C@@H]2O[C@@]1(C)n1c3ccccc3c3c4c(c5c6ccccc6n2c5c31)C(=O)NC4 (single isomer, unassigned) | Tyrosine-protein kinase JAK1 (Homo sapiens) | ΔTm | 0.8
CCOc1cc(/C=C(\C#N)C(N)=O)cc(CSc2ccccc2)c1O | Tyrosine-protein kinase JAK1 (Homo sapiens) | ΔTm | 4.3

Okay, now this compound:
## Task Lab note: need ΔTm with Tyrosine-protein kinase JAK1 (Homo sapiens) for entry "O=C(Nc1cccc(Nc2cc(Nc3cccc(C(F)(F)F)c3)ncn2)c1)C1CC1" , please look it up.
## Result 1.7

---

- test_system: TRAF2 and NCK-interacting protein kinase (Homo sapiens)
Use 1 °C as the dividing line for ΔTm, with the line itself on the yes (1) side and lower values as no (0).

compound | assigned_class
Nc1ncnc2c1c(I)cn2[C@@H]1O[C@H](CO)[C@@H](O)[C@H]1O | yes (1)
Cc1ccc(NC(=O)c2ccc(CN3CCN(C)CC3)cc2)cc1Nc1nccc(-c2cccnc2)n1 | no (0)
COc1ccc(CNc2nc(N(CCO)CCO)nc3c2ncn3C(C)C)cc1 | no (0)
O=C1C=C2C(=Nc3c2c2c(c4c3=NC3=C4CCC=C3)C=NC=2)CC1 | yes (1)
Cn1cc(C2=C(c3cn(CCCSC(=N)N)c4ccccc34)C(=O)NC2=O)c2ccccc21 | yes (1)
O=c1cc(N2CCOCC2)oc2c(-c3ccccc3)cccc12 | no (0)
Nc1n[nH]c2nnc(-c3c(-c4ccccc4)nn4ccccc34)cc12 | yes (1)
Cl.Cn1cc(C2=C(c3ccc4cc5n(c4c3)CCC(CN)C5)C(=O)NC2=O)c2ccccc21 (stereo not given) | no (0)
NC(=O)c1ccc2[nH]c(-c3ccc(Oc4ccc(Cl)cc4)cc3)nc2c1 | no (0)

Turning to the following compound.
## Task Check the entry "CC(C)(C)c1cc(C=C2C(=O)C=CC2=O)cc(C(C)(C)C)c1O" : does ΔTm equal or exceed 1 °C?
## Result no (0)

---

Reported values: ΔTm for Serine/threonine-protein kinase pim-3 (Homo sapiens), one per item.

Here are 5 molecules together with their reported answers.
molecule | meas_value
CC(C)[C@H](CO)Nc1nc(Nc2cc(N)cc(Cl)c2)c2ncn(C(C)C)c2n1 [AMINOPURVALANOL] | 6.7 °C
NC(=O)c1ccc(-c2nc(-c3ccc4c(c3)OCCO4)c(-c3ccccn3)[nH]2)cc1 | 0.4 °C
C[S+]([O-])c1ccc(CSc2nc(-c3ccc(F)cc3)c(-c3ccncc3)[nH]2)cc1 (stereo unspecified) | -0.4 °C
COc1ccc2c(c1)/C(=C/c1cnc[nH]1)C(=O)N2 [SU-9516] | 2.3 °C
Cn1cc(C2=C(c3cn(CCCSC(=N)N)c4ccccc34)C(=O)NC2=O)c2ccccc21 | 7.7 °C

## Task Dear colleague, I am looking for the recorded ΔTm of the following molecule: "O=C1Cc2c([nH]c3ccc([N+](=O)[O-])cc23)-c2ccccc2N1"
## Result 2.8 °C

## Task Try this molecule next: N#CC(C#N)=Cc1ccc(O)c(O)c1 [TYRPHOSTIN 23]
## Result 1.6 °C

Reference for the values: ChEMBL document CHEMBL1145498
